biological target: P2Y purinoceptor 1 (Homo sapiens); assay: Antagonist activity at P2Y1 expressed in HEK293 cells by FLIPR assay
Sequence (P47900 whole entry): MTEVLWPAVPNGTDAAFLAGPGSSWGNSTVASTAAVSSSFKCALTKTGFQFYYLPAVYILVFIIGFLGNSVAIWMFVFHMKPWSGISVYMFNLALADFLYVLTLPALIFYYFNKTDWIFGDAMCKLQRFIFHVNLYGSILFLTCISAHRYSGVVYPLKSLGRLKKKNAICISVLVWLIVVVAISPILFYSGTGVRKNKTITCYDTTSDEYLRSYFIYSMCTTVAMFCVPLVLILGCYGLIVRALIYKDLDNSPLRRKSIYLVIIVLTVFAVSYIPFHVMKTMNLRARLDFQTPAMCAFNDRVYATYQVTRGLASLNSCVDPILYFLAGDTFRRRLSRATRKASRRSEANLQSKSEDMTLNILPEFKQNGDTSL
measured_quantity: pIC50
Reminder that pIC50 is minus the log10 of a molar concentration.

## Input GET /values?readout=pIC50&system=P2Y purinoceptor 1 (Homo sapiens)&item= `O=C(Nc1ccc(OC(F)(F)F)cc1)Nc1cccc2cc(-c3ccccc3C(F)(F)F)oc12`
## Output 5.20

## Input // same read-out, input: `CC(C)c1ccccc1-c1cc2cccc(NC(=O)Nc3cccc(C(F)(F)F)c3)c2o1`
## Output 5.30

====

system: Platelet; assay: Inhibition of ADP-mediated alpha granule release in human platelet assessed as inhibition of P-selectin expression by flow cytometry; type: functional, cell-based
measured_quantity: pIC50
Reminder that pIC50 is minus the log10 of a molar concentration.

## Input Report pIC50 for `CC(C)c1ccccc1-c1cc2cccc(NC(=O)Nc3ccc(C(C)(C)C)cc3)c2o1` please.
## Output 6.52
